Recorded inhibition, one value per entry.
# TARGET OR TEST SYSTEM: NUAK family SNF1-like kinase 1 (Homo sapiens);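 further: reported values are mean inhibition of ARK5 (NUAK1), from the GSK PKIS screen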
# Sequence (whole entry): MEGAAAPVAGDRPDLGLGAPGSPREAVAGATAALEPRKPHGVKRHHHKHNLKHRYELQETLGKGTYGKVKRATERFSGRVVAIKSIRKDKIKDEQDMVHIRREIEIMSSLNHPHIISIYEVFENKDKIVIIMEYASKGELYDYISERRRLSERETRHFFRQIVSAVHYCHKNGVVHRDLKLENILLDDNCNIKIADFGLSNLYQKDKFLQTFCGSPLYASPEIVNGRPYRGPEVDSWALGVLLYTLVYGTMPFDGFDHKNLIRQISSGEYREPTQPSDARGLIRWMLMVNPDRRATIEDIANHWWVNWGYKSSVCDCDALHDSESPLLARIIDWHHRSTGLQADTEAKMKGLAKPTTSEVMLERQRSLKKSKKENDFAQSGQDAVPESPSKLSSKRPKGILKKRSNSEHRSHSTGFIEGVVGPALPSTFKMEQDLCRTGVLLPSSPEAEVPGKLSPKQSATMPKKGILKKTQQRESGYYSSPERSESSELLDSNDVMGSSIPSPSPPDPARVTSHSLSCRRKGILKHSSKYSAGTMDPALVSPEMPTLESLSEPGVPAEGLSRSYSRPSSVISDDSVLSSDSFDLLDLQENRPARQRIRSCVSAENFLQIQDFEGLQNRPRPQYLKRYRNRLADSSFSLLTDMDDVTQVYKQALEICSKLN
# STATED CONDITIONS: at 0.1 µM

[
  {
    "SMILES RECORD": "Nc1nonc1-c1nc2cnccc2n1C1CCCCC1",
    "inhibition (%)": 0.83
  },
  {
    "SMILES RECORD": "COc1cccc(COc2cc(-n3cnc4ccccc43)sc2C(N)=O)c1",
    "inhibition (%)": -2.73
  },
  {
    "SMILES RECORD": "CCn1c(-c2nonc2N)nc2c(C#CC(C)(C)O)nc(O[C@@H](CN)c3ccccc3)cc21",
    "inhibition (%)": 24.4
  },
  {
    "SMILES RECORD": "CCn1c(-c2nonc2N)nc2c(C#CC(C)(C)O)ncc(OC[C@@H]3CCCN3)c21",
    "inhibition (%)": 6.58
  },
  {
    "SMILES RECORD": "COc1cccc(-n2ncc3c(N/N=C/c4ccncc4)ncnc32)c1",
    "inhibition (%)": 16.1
  },
  {
    "SMILES RECORD": "Cc1cc(-c2ccco2)cc(C)c1/C=C/c1cncc(-c2nn[nH]n2)c1",
    "inhibition (%)": -1.33
  },
  {
    "SMILES RECORD": "NS(=O)(=O)c1ccc(-c2ccc3c(NC(=O)C4CC4)n[nH]c3c2)cc1",
    "inhibition (%)": 3.06
  },
  {
    "SMILES RECORD": "Fc1ccc(-c2ncn(C3CCNCC3)c2-c2ccnc(Oc3ccccc3)n2)cc1",
    "inhibition (%)": -1.26
  },
  {
    "SMILES RECORD": "COc1cc(C=NNc2ncnc3c2cnn3Cc2ccccc2)ccc1O",
    "inhibition (%)": 7.72
  }
]

Values compiled from ChEMBL document CHEMBL1961873.
